Origin of the recorded values: the supplement of paper PMC9170038

Parameter apparent KD of MS2 coat protein: see the listing below.
- Tested on: MS2 coat protein
- Experiment summary: apparent KD of MS2 coat protein; designed switch direction (-1 OFF switch, 1 ON switch): 1; higher = weaker reporter binding
- Measurement parameters: input ligand: none

{"Macromolecule sequence": "AUAGUUUCCGAAGGAUAUGAUGAGGAUCACCCAUCAGAAGGUUGGCUAUUGGGCGGACAUGAGGAUCACCCAUGUCUUUCGGUU (Eterna round: R96, puzzle: Same State NG 1)", "Tgt": "MS2 coat protein", "apparent KD of MS2 coat protein / µM": 0.101}
{"Macromolecule sequence": "AAAAUGGGAUUUUACAUGAGGAUCACCCAUGUGGGUAUCACUGAGGAUAUGAGGAUCUUGAAAAAUCAGAAGGCAGAAUUUCAA [AK SSNG3-V2-21] (Eterna round: R96, puzzle: Same State NG 3)", "Tgt": "MS2 coat protein", "apparent KD of MS2 coat protein / µM": 0.329}
{"Macromolecule sequence": "GCUAGAAUUAAAGCCAACAUGAGGAUCACCCAUGUAUGUUGGCAGGAUAUCGUUUGCAAAGCAAACGAGAAGGGCUAAACUAGC [Mat - Same State NG 3 - JL Mod - D4] (Eterna round: R96, puzzle: Same State NG 3)", "Tgt": "MS2 coat protein", "apparent KD of MS2 coat protein / µM": 0.244}
{"Macromolecule sequence": "UUGUUUCGUCAUUAACAUGAGGAUCACCCAUGUCUUGGCCCAGAGGAUAUGCAUGUUUGAUUGUAGCAGAAGGCUGAUUGUUGU [JR_SSNG3_Sub031] (Eterna round: R96, puzzle: Same State NG 3)", "Tgt": "MS2 coat protein", "apparent KD of MS2 coat protein / µM": 0.0425}
{"Macromolecule sequence": "AUAGUUUCCGAAGGAUAUGAUGAGGAUCACCCAUCAGAAGGUUGGCUAUUGGGCUGACAUGAGGAUCACCCAUGUUCUGGAGUU (Eterna round: R96, puzzle: Same State NG 1)", "Tgt": "MS2 coat protein", "apparent KD of MS2 coat protein / µM": 0.0645}
